assay-endpoint: melting point

Examples from the recorded data:
{"structure-notation": "O=C(CCc1nnc(Nc2ccccc2Cl)o1)NC1CCN(Cc2ccc(F)c(F)c2)CC1", "melting point": "162 to 163 °C"}
{"structure-notation": "O=C(CCc1nnc(Nc2ccccc2Cl)o1)NC1CCN(Cc2ccc(Cl)c(Cl)c2)CC1", "melting point": "154 to 156 °C"}
{"structure-notation": "O=C(Cc1nnc(Nc2ccccc2)o1)NC1CCN(Cc2ccc(Cl)c(Cl)c2)CC1", "melting point": "191 to 217 °C"}

Read the next record carefully.
get_value(item= O=C(Cc1csc(Nc2ccccc2)n1)NC1CCN(Cc2ccc(Cl)c(Cl)c2)CC1 , readout=melting point) returns 191 to 192 °C

Origin of the recorded values: patent US6958350B2
